Molecular target: Acetylcholinesterase (Homo sapiens)
Assay: Percent inhibition of acetylcholinesterase using ATCh1 as a substrate
Parameters: concentration or dose not given beside the values
Conditions: concentration not given here
Metric: inhibition (%)
Respond numerically; units are % and should not be typed.

Supply inhibition measured with Acetylcholinesterase (Homo sapiens) for CC[C@@]1(O)C(=O)OCc2c1cc1n(c2=O)Cc2cc3c4c(ccc3nc2-1)OCCN4C .
14

Supply inhibition measured with Acetylcholinesterase (Homo sapiens) for CC[C@@]1(O)C(=O)OCc2c1cc1n(c2=O)Cc2cc3c(CN(C)C)c(O)ccc3nc2-1 [TOPOTECAN] .
20

Supply inhibition measured with Acetylcholinesterase (Homo sapiens) for CCc1c2c(nc3ccc(O)cc13)-c1cc3c(c(=O)n1C2)COC(=O)[C@]3(O)CC [7-ETHYL-10-HYDROXYCAMPTOTHECIN] .
13

Supply inhibition measured with Acetylcholinesterase (Homo sapiens) for CC[C@@]1(O)C(=O)OCc2c1cc1n(c2=O)Cc2cc3c4c(ccc3nc2-1)OCCN4CCN .
17

* * *

Biological target: DNA topoisomerase 1 (Mus musculus, UniProt Q04750)
Assay: Average concentration to cause 50% inhibition of topo 1 using the cleavable complex assay
pIC50: −log10 of the molar value.
Use Yes when the recorded pIC50 is no lower than 5; use No when it is lower.

Solved cases below.
Molecule: CC[C@@]1(O)C(=O)OCc2c1cc1n(c2=O)Cc2cc3ccccc3nc2-1
Tested target: DNA topoisomerase 1 (Mus musculus, UniProt Q04750)
Assigned class: No

Molecule: CC[C@@]1(O)C(=O)OCc2c1cc1n(c2=O)Cc2cc3c4c(ccc3nc2-1)OCCN4C
Tested target: DNA topoisomerase 1 (Mus musculus, UniProt Q04750)
Assigned class: No

Consider the record given below.
Check if pIC50 >= 5 (inclusive). Item: CCc1c2c(nc3ccc(O)cc13)-c1cc3c(c(=O)n1C2)COC(=O)[C@]3(O)CC [7-ETHYL-10-HYDROXYCAMPTOTHECIN]
Yes

* * *

Tested on: WiDr
Test: In Vitro cytotoxicity against human colon cancer cell line (WiDr)
Type: functional, cell-based
Metric: IC50 (nM)
Respond numerically; units are nM and should not be typed.

Item smiles: CCN1CCOc2ccc3nc4c(cc3c21)Cn1c-4cc2c(c1=O)COC(=O)[C@]2(O)CC
IC50, nM: 21
--
Item smiles: CCc1c2c(nc3ccc4c(c13)NCCO4)-c1cc3c(c(=O)n1C2)COC(=O)[C@]3(O)CC
IC50, nM: 16
--
Item smiles: CC[C@@]1(O)C(=O)OCc2c1cc1n(c2=O)Cc2cc3c4c(cc(CN5CCOCC5)c3nc2-1)OCCN4
IC50, nM: 5340

Continue with the compound presented below.
For the compound CCc1c2c(nc3ccc4c(c13)N(C)CCO4)-c1cc3c(c(=O)n1C2)COC(=O)[C@]3(O)CC , give its reported IC50.
135

* * *

Parameter: IC50. Scope: all listed entries.
Biological target: DNA topoisomerase 1 (Mus musculus, UniProt Q04750)
Sequence (Q04750 whole entry): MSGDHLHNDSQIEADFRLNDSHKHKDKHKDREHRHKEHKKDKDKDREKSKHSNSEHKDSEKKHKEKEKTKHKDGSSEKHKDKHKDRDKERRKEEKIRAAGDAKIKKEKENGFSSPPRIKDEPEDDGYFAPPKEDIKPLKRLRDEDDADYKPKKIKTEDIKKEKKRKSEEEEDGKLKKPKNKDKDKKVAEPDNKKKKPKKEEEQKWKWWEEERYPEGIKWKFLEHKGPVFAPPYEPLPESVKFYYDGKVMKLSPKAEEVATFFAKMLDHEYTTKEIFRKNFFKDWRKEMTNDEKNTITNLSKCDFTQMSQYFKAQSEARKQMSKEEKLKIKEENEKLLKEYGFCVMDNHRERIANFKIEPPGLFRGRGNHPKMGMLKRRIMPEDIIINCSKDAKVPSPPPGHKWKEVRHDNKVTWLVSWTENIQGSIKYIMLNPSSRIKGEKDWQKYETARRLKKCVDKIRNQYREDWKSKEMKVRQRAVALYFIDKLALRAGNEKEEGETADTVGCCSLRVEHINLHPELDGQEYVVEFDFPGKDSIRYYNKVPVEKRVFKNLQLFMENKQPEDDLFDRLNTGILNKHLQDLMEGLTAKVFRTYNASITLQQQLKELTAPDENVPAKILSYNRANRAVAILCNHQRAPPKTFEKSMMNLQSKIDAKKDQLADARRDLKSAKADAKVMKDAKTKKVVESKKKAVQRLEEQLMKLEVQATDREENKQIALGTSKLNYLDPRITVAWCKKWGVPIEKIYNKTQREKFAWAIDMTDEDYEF
Experiment: Average concentration to cause 50% inhibition of topo 1 using the cleavable complex assay
Respond numerically; units are µM and should not be typed.

Worked set:
Item smiles: CC[C@@]1(O)C(=O)OCc2c1cc1n(c2=O)Cc2cc3c4c(ccc3nc2-1)OCCN4CC#N
IC50 [µM]: 16

Item smiles: CCN1CCOc2ccc3nc4c(cc3c21)Cn1c-4cc2c(c1=O)COC(=O)[C@]2(O)CC
IC50 [µM]: 12

Item smiles: CC[C@@]1(O)C(=O)OCc2c1cc1n(c2=O)Cc2cc3c4c(ccc3nc2-1)OCCN4
IC50 [µM]: 41

Item smiles: CC[C@@]1(O)C(=O)OCc2c1cc1n(c2=O)Cc2cc3c4c(ccc3nc2-1)OCCN4CCN
IC50 [µM]: 133

Item smiles: CCc1c2c(nc3ccc4c(c13)NCCO4)-c1cc3c(c(=O)n1C2)COC(=O)[C@]3(O)CC
IC50 [µM]: 5

Continue with the compound presented below.
For the compound CCc1c2c(nc3ccc4c(c13)N(C)CCO4)-c1cc3c(c(=O)n1C2)COC(=O)[C@]3(O)CC , give its reported IC50.
1600
